# target-desc: T1, recombinant human ErbB2/Fc chimera (human, UniProt P04626 23-652)
# T1 construct: bought from R&D Systems; also called rhErbB2-Fc; rhErb2-Fc; Fc part of the bought chimera not given; not described
# protocol-summary: SPR (Biacore T100), Nanobody over immobilised rhErbB2-Fc
recorded-endpoint: kon (M⁻¹ s⁻¹)

Examples from the recorded data:
| binder | kon / M⁻¹ s⁻¹ |
| --- | --- |
| DUMMY-35GS-2D3 (bispecific antibody, C-term myc-His6 tag; also called dummy-2D3; Dummy-2D3) EVQLVESGGGLVQAGGSLRLSCAASGRTFRSYPMGWFRQAPGKEREFVASITGSGGSTYYADSVKGRFTISRDNAKNTVYLQMNSLRPEDTAVYSCAAYIRPDTYLSRDYRKYDYWGQGTQVTVSSGGGGSGGGGSGGGGSGGGGSGGGGSGGGGSGGGGSEVQLVESGGSLVQPGGSLRLSCAASGFTFDDYAMSWVRQVPGKGLEWVSSINWSGTHTDYADSVKGRFTISRNNANNTLYLQMNSLKSEDTAVYYCAKNWRDAGTTWFEKSGSAGQGTQVTVSS | 1.16e+06 |
| DUMMY-35GS-47D5 (bispecific antibody, control: dummy Nanobody fused N-terminally to 47D5; C-term myc-His6 tag; also called Dummy-47D5) EVQLVESGGGLVQAGGSLRLSCAASGRTFRSYPMGWFRQAPGKEREFVASITGSGGSTYYADSVKGRFTISRDNAKNTVYLQMNSLRPEDTAVYSCAAYIRPDTYLSRDYRKYDYWGQGTQVTVSSGGGGSGGGGSGGGGSGGGGSGGGGSGGGGSGGGGSEVQLVESGGGLVQPGGSLRLSCAASGSIFGFNDMAWYRQAPGKQRELVALISRVGVTSSADSVKGRFTISRVNAKDTVYLQMNSLKPEDTAVYYCYMDQRLDGSTLAYWGQGTQVTVSS | 271000 |

(I) 2D3 (VHH, C-term myc-His6 tag; also called NB-2D3; Nb-2D3) VHH: EVQLVESGGSLVQPGGSLRLSCAASGFTFDDYAMSWVRQVPGKGLEWVSSINWSGTHTDYADSVKGRFTISRNNANNTLYLQMNSLKSEDTAVYYCAKNWRDAGTTWFEKSGSAGQGTQVTVSS
(II) 47D5 (VHH, C-term myc-His6 tag; also called 47A8; 47A11) VHH: KVQLVESGGGLVQPGGSLRLSCAASGSIFGFNDMAWYRQAPGKQRELVALISRVGVTSSADSVKGRFTISRVNAKDTVYLQMNSLKPEDTAVYYCYMDQRLDGSTLAYWGQGTQVTVSS
Min kon? I | II Lab note: record the label of whichever item you select.
II

The origin of these recorded values is patent US20150232562A1.
